Origin of measurements: the supplement of paper PMC6555819

System: RARb homodimer (NR concentration 270 nM)
Experiment: PBM binding z-score (relative to random genomic background probes); higher = stronger binding; sequences stand for … in GC…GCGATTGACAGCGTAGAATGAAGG
quantity: PBM binding z-score
Lab note: write the figure by itself, no unit.

In the examples that follow, each entry is paired with its recorded PBM binding z-score.
CGAACTAGGTCAAGGTCAGTGAATCTCCGCACGC | 4.79
CAAACTAAGTCAAGGTCAAAGTCGGTTTGTGCCA | 4.04
TCTAGTTGGGCACGGAGGTCACACACGACGGGTA | 4.1
CCTGCTAGGTCGTGGTCAGCTAATCTACAGTATG | 1.21

Provide measured PBM binding z-score value, entry: TCTCGGAGGACACGAAGGTCAGAGGTTTCCAGAG
4.01

Provide measured PBM binding z-score value, entry: CGAACTAGGTCAGAACAGGACAGAGAAGGATGAT
1.89

Provide measured PBM binding z-score value, entry: CCTAGTAGGTCAGGAGGTCACACACCGGATATGA
5.24

Provide measured PBM binding z-score value, entry: ACTAGTTGGTCAGCTGAGATCACACACAATTCGG
0.406

Provide measured PBM binding z-score value, entry: TGAATGAGGTTATAAGATCAGGGATCGTTGCAAA
-0.0683

====

Catalogue of sequences with associated PBM binding z-score
Tested on: LXRb homodimer (NR concentration 270 nM)
Test: PBM binding z-score (relative to random genomic background probes); higher = stronger binding; sequences stand for … in GC…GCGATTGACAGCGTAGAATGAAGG
Lab note: write the figure by itself, no unit.

In the examples that follow, each entry is paired with its recorded PBM binding z-score.
CTTCCAAGGTCAAGGTCAGTGAAAGAGACTCGAA | 1.61
TAGCCTAGGTCAGGTCGGGCCAGTATACGCTATA | -0.502
ACTATTAGTTGACTTAGGGAAACCGATACGACGC | 0.742
CTCAAAAGGTCGTGCTCAGGTGAGTATACCAAAC | 0.129
ATCTCTAGTTAAAGATAGTTCAGTGAATGCAAAT | 0.612

Provide measured PBM binding z-score value, entry: TCTCGGAGGACACGAAGGTCAGAACTTTCCAGAG
-0.708

Provide measured PBM binding z-score value, entry: GATACAAGGTCAAGGCCAGAGTACGCGTATTGAT
0.481

Provide measured PBM binding z-score value, entry: AGTCAAAGTTCATCTAGGTAACGTAGGATATGCT
1.7

Provide measured PBM binding z-score value, entry: TGATATAGGTAAAGGTGAAAGTCGAACGATATGA
0.036

Provide measured PBM binding z-score value, entry: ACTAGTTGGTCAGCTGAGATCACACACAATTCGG
0.186

Provide measured PBM binding z-score value, entry: CGAAGTAGGTCAAGGACAGTGAATCTCCGCACGC
-0.179

Provide measured PBM binding z-score value, entry: AGAATGAGGTTACCAAAGATCAGGAAAACGCTTG
-0.00832

====

Catalogue of sequences with associated PBM binding z-score
Tested on: RARb homodimer (NR concentration 270 nM)
Experiment: PBM binding z-score (relative to random genomic background probes); higher = stronger binding; sequences stand for … in GC…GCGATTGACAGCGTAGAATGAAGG
Lab note: write the figure by itself, no unit.

In the examples that follow, each entry is paired with its recorded PBM binding z-score.
AAAACGAGGGCAATGAGTTGATAGCACGGGTGGC | 1.2
GCTACTAGTTGAAAGGGCAACCGAATGATTCTCG | 2.01
AGTCAAAGTTCACTAGGTAACCTAAGATTCAGCT | 3.75
TAGCCTCGGTCAGATCGGGCCAGTATACGCTATA | 0.82
GTACCAAGGTGAATAGGGCGTTGATGAGTAGGCG | 1.21
CGAACGAGGGCATGGGTTGATAGCAAATGCCGAT | 1.27
ACTAGCAGGCCAAGTTTGGGTCACTTAAACAAAG | 2.22
CCTTACGGGTCAAGGTTATAGCGCGGGTGGTACG | 3.48
CCAGACAGGTGAGAAGGTAACTGAGCCTCGATTA | 0.357
ATCTCTAGGTAACCAAGTTCAGTCAATGCCGAAC | 2

Provide measured PBM binding z-score value, entry: GGAACGAGGGCAAGTTAATAGCAGAGTTTGATGG
1.35

Provide measured PBM binding z-score value, entry: ATCGAAAGGTCGAAGTTGAGTATACCCACCCGAA
2.55

Provide measured PBM binding z-score value, entry: ATATGTAGGTTAGCCGGGGTCATTCAGACTAGGC
4.07

Provide measured PBM binding z-score value, entry: GCTTGTAGATCATGGTTAAGAAAGACTAAGCTAA
-0.707

Provide measured PBM binding z-score value, entry: AATACAGGGTCACTAGGCGAGAGTAGGTACGAAT
3.24

Provide measured PBM binding z-score value, entry: TCTAGTTGGTCACGGAGGTCAGACACGACGGGTA
3.9

Provide measured PBM binding z-score value, entry: TCTTGTAGATCAGCAGGTTAAGAACGCTGGCCAA
-0.0185
